target or system: T1, human CD137 expressed on CHO cells (human, UniProt Q07011 18-255)
T1 construct: also called CHO huCD137; CHO human CD137 cells
experiment notes: FMAT/Mirrorball on CHO huCD137 cells
recorded metric: EC50 (nM)
Express the result in nM but write the number alone.

// solved cases for EC50 follow
[
  {
    "binder": "003BB172-E01-3 (VHH, Human VH single domain antibody, monovalent) VHH: EVQLVESGGGLVQPGGSLRLSCAASGFTFSNYGMHWVRQAPGKRLEWVAVISNDGNTKTYADSVKGRFTISRDNSKNMLYLQMNSLRTEDTAVYYCAQDETTTVTASYYFDYWGQGTLVTVSS",
    "recorded metric": "EC50",
    "data value": 1.06
  },
  {
    "binder": "003BB172-E01-7 (VHH, Human VH single domain antibody, monovalent; also called CD137C) VHH: EVQLVESGGGLVQPGGSLRLSCAASGFTFSNYGMHWVRQAPGKGLEWVAVISNDGNTKTYADSVKGRFTISRDNSKNTLYLQMNSLRTEDTAVYYCAQDETTTVTASYYFDYWGQGTLVTVSS",
    "recorded metric": "EC50",
    "data value": 1.28
  },
  {
    "binder": "003BB172-E01-14 (VHH, Human VH single domain antibody, monovalent) VHH: EVQLVESGGGVVQPGRSLRLSCAASGFTFSNYGMHWVRQAPGKGLEWVAVISNDGNTKTYADSVKGRFTISRDNSKNTLYLQMNSLRAEDTAVYYCAQDETTTVTASYYFDYWGQGTLVTVSS",
    "recorded metric": "EC50",
    "data value": 1.29
  },
  {
    "binder": "003BB172-E01-4 (VHH, Human VH single domain antibody, monovalent) VHH: EVQLVESGGGLVQPGGSLRLSCAASGFTFSNYGMHWVRQAPGKGLEWVAVISNDGNTKTYADSVKGRFTISRDNSKNTLYLQMTSLRTEDTAVYYCAQDETTTVTASYYFDYWGQGTLVTVSS",
    "recorded metric": "EC50",
    "data value": 1.33
  },
  {
    "binder": "003BB172-E01-11 (VHH, Human VH single domain antibody, monovalent) VHH: EVQLVESGGGVVQPGRSLRLSCAASGFTFSNYGMHWVRQAPGKGLEWVAVISNDGNTKTYADSVKGRFTISRDNSKNTLYLQMNSLRTEDTAVYYCAQDETTTVTASYYFDYWGQGTLVTVSS",
    "recorded metric": "EC50",
    "data value": 1.21
  },
  {
    "binder": "003BB172-E01-6 (VHH, Human VH single domain antibody, monovalent; also called CD137B) VHH: EVQLVESGGGLVQPGGSLRLSCAASGFTFSNYGMHWVRQAPGKGLEWVAVISNDGNTKTYADSVKGRFTISRDNSKNMLYLQMNSLRTEDTAVYYCAQDETTTVTASYYFDYWGQGTLVTVSS",
    "recorded metric": "EC50",
    "data value": 1.08
  }
]

Indicate its recorded EC50; the binder in question is 003BB172-E01 (VHH, also called 003BB1172-E01) VHH: EVQLVESGGGLVQPGGSLRLSCAASGFTFSNYGMHWVRQAPGKRLEWVAVISNDGNTKTYADSVKGRFTISRDNSKNMLYLQMTSLRTEDTAVYYCAQDETTTVTASYYFDYWGQGTLVTVSS 1.73

Tell me EC50 reported for 003BB172-E01-2 (VHH, Human VH single domain antibody, monovalent) VHH: EVQLVESGGGLVQPGGSLRLSCAASGFTFSNYGMHWVRQAPGKRLEWVAVISNDGNTKTYADSVKGRFTISRDNSKNTLYLQMTSLRTEDTAVYYCAQDETTTVTASYYFDYWGQGTLVTVSS 1.74

Tell me EC50 reported for 003BB172-E01-12 (VHH, Human VH single domain antibody, monovalent) VHH: EVQLVESGGGLVQPGRSLRLSCAASGFTFSNYGMHWVRQAPGKGLEWVAVISNDGNTKTYADSVKGRFTISRDNSKNTLYLQMNSLRAEDTAVYYCAQDETTTVTASYYFDYWGQGTLVTVSS 1.21
